Molecular target: T1, human EGFRvIII protein on the surface of U87MG-hEGFRvIII cells (human, UniProt P00533 25-1210)
T1 construct: whole, on cells; Stably transfected U87MG cells; also called mutant EGFRvIII protein; U87MG-EGFRvIII
Assay: FACS on U87MG-hEGFRvIII cells
Would you kindly list EC50 for each of these binders?
Dear colleague, please return just the value in nM, with no unit written.

(Q) Could you share which EC50 value was measured for Murine anti-56F10 (antibody, V domains shown, Mouse hybridoma antibody; also called 56F10G2) VH: EVQLQQSGAELVKPGASVKLSCTASGFNIKDFYMHWVKQRTEQGLEWIGRIDPEDGETKYAPKFQGKATITADTSSNTAYLQLSSLTSEDTAVYYCGCRTGGFAYWGQGTLVTVSA VL: QIVLTQSPAIMSASPGEKVTMTCSASSSVSYLYWYQQKPGSSPSLLIYDTSNLASGVPVRFSGSGSGTSYSLTISRMEAEDAATYYCQQWSRNPWTFGGGTKLEIK ?
(A) 12.3

(Q) Could you share which EC50 value was measured for Murine anti-49G12 (antibody, V domains shown, Mouse hybridoma antibody; also called 49G12G5) VH: EVQLLQSGAELVKPGASVKLSCTASGFNIKDYYMHWVKQRTEQGLEWIGRIDPEDGETKYAPKFQGKATMTADTSSNTAYLQLSSLTSEDTAVYYCASSAYYGRNYWGQGTTLTVSS VL: QIVLTQSPAIMSASPGEKVTLTCSASSSLSSSYLYWYQQKPGSSPKLWIYSTSNLASGVPARFSGSGSGTSYSLTISSMEAEDAASYFCHQWSSYPYTFGGGTKLEIK ?
(A) 7.9

(Q) Could you share which EC50 value was measured for Murine anti-53D8 (antibody, V domains shown, Mouse hybridoma antibody; also called 53D8H4) VH: QVQLQQSGAELARPGASVKMSCKASGYTFTSYTMHWVKQRPGQGLEWIGYINPSSGYTKYNQIFKDKATLTADKSSSTAYMQLSSLTSEDSAVYYCTRGGGRGFAYWGQGTLVTVSA VL: DILMTQSPSSMSVSLGDTVSITCHASQDINSNIGWLQQKPGKSFKGLIYHGTNLEDGVPSRFSGSGSGADYSLTISSLESEDFADYYCVQYAQFPFTFGSGTKLEIK ?
(A) 6.8

(Q) Could you share which EC50 value was measured for Murine anti-46C4 (antibody, V domains shown, Mouse hybridoma antibody; also called 46C4A6) VH: EVHLQQSVAELVRPGASVKLSCTASGFNIKNTYMHWVKQRPEQGLEWIGRIDPANGNTKYAPKFQGKATITADTSSNTAYLQLSSLTSEDTAIYYCASDFDYWGQGTTLTVSS VL: DVLMTQTPLSLPVSLGDQVSISCRSSQSIVNSNGNTHLEWYLQKPGQSPKVLIYKVSKRFSGVPDRFSGSGSGTDFTLKISRVEAEDLGVYYCFQGSHVPYTFGGGTKLEIK ?
(A) 13.3

(Q) Could you share which EC50 value was measured for Murine anti-64B11 (antibody, V domains shown, Mouse hybridoma antibody; also called 64B11F2) VH: EVQLQQSGAELVKPGASVKLSCTASGFNIKDYYMHWVKQRTEQGLEWIGRIDPEDGETKYAPKFQGKATITADTSSNTAYLQLSNLPSEDTAVYYCGCRTGGFAYWGQGTLVTVSA VL: DILMTQSPSSMSVSLGDTVSITCHASQGINSNIGWLQQKPGKSFKALIYHGTNLEDGVPSRFSGSGSGADYSLTISSLESEDFADYYCVQYAQFPFTFGSGTELEIK ?
(A) 25.3
